- testTarget: GST-Nv-NF-kB (Ser allele) (Nematostella vectensis, UniProt A7UNT2 2-411)
- Sequence: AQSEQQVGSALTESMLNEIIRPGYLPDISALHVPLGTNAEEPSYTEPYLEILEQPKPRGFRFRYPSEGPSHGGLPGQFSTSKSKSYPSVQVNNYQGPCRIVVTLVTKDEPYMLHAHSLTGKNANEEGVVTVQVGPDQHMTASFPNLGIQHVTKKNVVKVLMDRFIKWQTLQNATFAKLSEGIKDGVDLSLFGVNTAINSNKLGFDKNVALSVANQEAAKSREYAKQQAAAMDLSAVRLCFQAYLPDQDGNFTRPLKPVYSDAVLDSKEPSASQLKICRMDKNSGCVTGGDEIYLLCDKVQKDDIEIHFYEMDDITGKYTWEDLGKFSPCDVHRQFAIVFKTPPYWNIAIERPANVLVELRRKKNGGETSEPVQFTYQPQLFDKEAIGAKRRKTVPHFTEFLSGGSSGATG
- assayOverview: protein-binding microarray (PBM); PBM: ~300 nM protein, 6 mM HEPES pH 7.8, 80 mM KCl, 0.5 mM EDTA, 0.5 mM EGTA, 6% glycerol, 35 ng/ul poly-dIdC, 1% milk, 1 h, room temperature; Ap Aiptasia and Nv Nematostella (sea anemones) / Co Capsaspora / Aq Amphimedon (sponge) / Dm Drosophila / Hu human; RHD is the Rel homology domain; high values mean tight binding
- conditionNotes: dsDNA, one strand shown
# y = binding signal below 6 z-score (exclusive); n = binding signal at/above 6 z-score

Determine if "CCGATTAACATCAGGGAGATCCCTGATGTTAATCGGGTCTTGATTCGCTTGACGCTGCTG" shows binding signal strictly lower than 6 z-score.
y

Determine if "CCGATTAACATCAGGGAAAATCATGATGTTAATCGGGTCTTGATTCGCTTGACGCTGCTG" shows binding signal strictly lower than 6 z-score.
n

Determine if "CCGATTAACATCACCCTCCCCCCTGATGTTAATCGGGTCTTGATTCGCTTGACGCTGCTG" shows binding signal strictly lower than 6 z-score.
y

Determine if "CCGATTAACATCAGGGGGAGTAATGATGTTAATCGGGTCTTGATTCGCTTGACGCTGCTG" shows binding signal strictly lower than 6 z-score.
y

Determine if "CCGATTAACATCATAATCCCCCATGATGTTAATCGGGTCTTGATTCGCTTGACGCTGCTG" shows binding signal strictly lower than 6 z-score.
n

Determine if "CCGATTAACATCAGGGGAACCCCTGATGTTAATCGGGTCTTGATTCGCTTGACGCTGCTG" shows binding signal strictly lower than 6 z-score.
n

Determine if "CCGATTAACATCATAAACCCCCATGATGTTAATCGGGTCTTGATTCGCTTGACGCTGCTG" shows binding signal strictly lower than 6 z-score.
y

Determine if "CCGATTAACATCACCGTGGGAAATGATGTTAATCGGGTCTTGATTCGCTTGACGCTGCTG" shows binding signal strictly lower than 6 z-score.
y

Determine if "CCGATTAACATCACGTACTTCCCTGATGTTAATCGGGTCTTGATTCGCTTGACGCTGCTG" shows binding signal strictly lower than 6 z-score.
y

Determine if "CCGATTAACATCAAAACTCCCCGTGATGTTAATCGGGTCTTGATTCGCTTGACGCTGCTG" shows binding signal strictly lower than 6 z-score.
n

Determine if "CCGATTAACATCAAGGGGAAATCTGATGTTAATCGGGTCTTGATTCGCTTGACGCTGCTG" shows binding signal strictly lower than 6 z-score.
n

Determine if "CCGATTAACATCAGGGGGGTATATGATGTTAATCGGGTCTTGATTCGCTTGACGCTGCTG" shows binding signal strictly lower than 6 z-score.
y

Determine if "CCGATTAACATCAACTTTCCCCCTGATGTTAATCGGGTCTTGATTCGCTTGACGCTGCTG" shows binding signal strictly lower than 6 z-score.
n

Determine if "CCGATTAACATCAGGGGGAGAAATGATGTTAATCGGGTCTTGATTCGCTTGACGCTGCTG" shows binding signal strictly lower than 6 z-score.
n

Determine if "CCGATTAACATCAGATATTACCCTGATGTTAATCGGGTCTTGATTCGCTTGACGCTGCTG" shows binding signal strictly lower than 6 z-score.
y

Determine if "CCGATTAACATCACTGAAATCCCTGATGTTAATCGGGTCTTGATTCGCTTGACGCTGCTG" shows binding signal strictly lower than 6 z-score.
y

Determine if "CCGATTAACATCAAAAAATCCCGTGATGTTAATCGGGTCTTGATTCGCTTGACGCTGCTG" shows binding signal strictly lower than 6 z-score.
y

Determine if "CCGATTAACATCAAGAATCCCCCTGATGTTAATCGGGTCTTGATTCGCTTGACGCTGCTG" shows binding signal strictly lower than 6 z-score.
n

Determine if "CCGATTAACATCAGGAATCCCCCTGATGTTAATCGGGTCTTGATTCGCTTGACGCTGCTG" shows binding signal strictly lower than 6 z-score.
n

Determine if "CCGATTAACATCACCCTTTTCCCTGATGTTAATCGGGTCTTGATTCGCTTGACGCTGCTG" shows binding signal strictly lower than 6 z-score.
y

Determine if "CCGATTAACATCACACATCCCCCTGATGTTAATCGGGTCTTGATTCGCTTGACGCTGCTG" shows binding signal strictly lower than 6 z-score.
y

Determine if "CCGATTAACATCACACTTTCCCCTGATGTTAATCGGGTCTTGATTCGCTTGACGCTGCTG" shows binding signal strictly lower than 6 z-score.
n

Determine if "CCGATTAACATCAGAGTTTCCCCTGATGTTAATCGGGTCTTGATTCGCTTGACGCTGCTG" shows binding signal strictly lower than 6 z-score.
n

Determine if "CCGATTAACATCAGTTTCCCAAATGATGTTAATCGGGTCTTGATTCGCTTGACGCTGCTG" shows binding signal strictly lower than 6 z-score.
y

Determine if "CCGATTAACATCAGGACGCCCCCTGATGTTAATCGGGTCTTGATTCGCTTGACGCTGCTG" shows binding signal strictly lower than 6 z-score.
y

Determine if "CCGATTAACATCAGGGGGTGCACTGATGTTAATCGGGTCTTGATTCGCTTGACGCTGCTG" shows binding signal strictly lower than 6 z-score.
y

Determine if "CCGATTAACATCAGGGAAAAACCTGATGTTAATCGGGTCTTGATTCGCTTGACGCTGCTG" shows binding signal strictly lower than 6 z-score.
n

Determine if "CCGATTAACATCAAGTTTTCCCCTGATGTTAATCGGGTCTTGATTCGCTTGACGCTGCTG" shows binding signal strictly lower than 6 z-score.
n
